Every entry's value here was drawn from the supplement of paper PMC10567573.

Entries and their measured protein stability index follow.
B1: RIT1 (parent)
chain: FHALVREIRRKEKEAVLAMEKKSK

# Variants of: B1
# experiment-description: protein stability index of a GFP-peptide fusion (GPS, HEK-293T) (PSI 1-6); higher = more stable;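 note: lentivirally expressed fusions sorted by FACS into six bins by GFP to DsRed ratio, PSI derived from sequencing read proportions per bin multiplied by bin number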
# experimental-conditions: c terminus: a fixed tail appended
Answer using only a numeral; do not append any unit.

Reference set (2 entries):
FHALVREIRRKEKEAVLDMEKKSK [A18D]; 1.96
FHALVREIRRKEKEAVLAMEKKYK [S23Y]; 2.83

Looking up FHAFVREIRRKEKEAVLAMEKKSK [L4F] , I found its protein stability index recorded as 2.35

Looking up FHALVREIRRKEHEAVLAMEKKSK [K13H] , I found its protein stability index recorded as 2.38
